B1: COX4I1 (parent)
chain: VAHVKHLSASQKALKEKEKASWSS

Variants of: B1
Assay: protein stability index of a GFP-peptide fusion (GPS, HEK-293T) (PSI 1-6); higher = more stable;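 also: lentivirally expressed fusions sorted by FACS into six bins by GFP to DsRed ratio, PSI derived from sequencing read proportions per bin multiplied by bin number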
Details: c terminus: a fixed tail appended
Reported Property: protein stability index
Reply with just the number.

Data request, read-out protein stability index, for S24K
4.25

Returns the measured protein stability index for the input variant. Input: W22G
5.03

Look up protein stability index: S10R
3.16

Recorded protein stability index of K15Q , please.
3.5

Would you kindly share the measured protein stability index for A20K ?
3.48

# get_value(readout='protein stability index', item= A20G )
3.25

For the variant shown here, V1R , give the reported protein stability index.
3.83

// protein stability index lookup, key: L14P
3.41

Which protein stability index value is on record for L14Y ?
3.09

Would you mind telling me what protein stability index value was observed for A20Y ?
2.29

Looking for the measured protein stability index of K19N , can you help?
3.4
